Give IC50 for every item shown.
# MEASURED ON: human STING protein (Homo sapiens (Human), UniProt Q86WV6)
# Sequence (Q86WV6 whole entry): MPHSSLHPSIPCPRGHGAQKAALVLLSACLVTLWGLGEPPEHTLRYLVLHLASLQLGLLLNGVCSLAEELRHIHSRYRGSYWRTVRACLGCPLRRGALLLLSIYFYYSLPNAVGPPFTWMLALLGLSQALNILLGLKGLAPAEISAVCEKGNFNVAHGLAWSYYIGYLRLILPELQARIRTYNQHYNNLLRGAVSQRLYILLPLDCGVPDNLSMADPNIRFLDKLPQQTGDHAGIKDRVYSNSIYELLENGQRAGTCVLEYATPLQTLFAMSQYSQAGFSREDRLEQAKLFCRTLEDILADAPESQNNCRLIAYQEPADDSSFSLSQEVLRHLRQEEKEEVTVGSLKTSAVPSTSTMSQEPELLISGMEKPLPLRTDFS
# PROTOCOL SUMMARY: WT STING binding assay (HTRF, competition with labeled 2′3′cGAMP)
# ASSAY SETUP: recombinant 6×His-tagged human STING, three hours at room temperature

Hi! Can you tell me IC50 for each of these molecules?
1. COc1cc(NC(=O)c2ccc(-n3ccnc3)nn2)c(C(=O)O)c(F)c1CCCc1cc(NC(=O)c2ccc(-n3ccnc3)nn2)c(C(=O)O)cc1F
2. O=C(Nc1cc(CCCc2ccc(C(=O)O)c(NC(=O)c3ccc4nnnn4n3)c2)c(Cl)cc1C(=O)O)c1ccc(-n2ccnc2)nn1
3. CCOC(=O)c1cc(F)c(CCCc2cc(NC(=O)c3ccc(-n4ccnc4)nn3)c(C(=O)O)cc2F)cc1NC(=O)c1ccc(-n2ccnc2)nn1

A:
["0.01 to 0.1 µM", "0.01 to 0.1 µM", "0.01 to 0.1 µM"]

Hi! Can you tell me IC50 for each of these molecules?
1. CN(Cc1cc(NC(=O)c2ccc(-n3ccnc3)nn2)c(C(=O)O)cc1F)Cc1cc(NC(=O)c2ccc(-n3ccnc3)nn2)c(C(=O)O)cc1F
2. O=C(Nc1cc(CCCc2cc(NC(=O)c3ccc(-n4ccnc4)nn3)c(C(=O)O)nc2Cl)c(F)cc1C(=O)O)c1ccc(-n2ccnc2)nn1
3. NC(=O)c1cc(F)c(CCOc2cc(NC(=O)c3ccc(-n4ccnc4)nn3)c(C(=O)O)cc2F)cc1NC(=O)c1ccc(-n2ccnc2)nn1

A:
1: < 0.01 µM; 2: 0.01 to 0.1 µM; 3: > 1 µM

====

Give pIC50 for every item shown.
# MEASURED ON: human STING protein (Homo sapiens (Human), UniProt Q86WV6)
# PROTOCOL SUMMARY: WT STING binding assay (HTRF, competition with labeled 2′3′cGAMP)
# ASSAY SETUP: recombinant 6×His-tagged human STING, three hours at room temperature
pIC50: −log10 of the molar value.

Sample answers from the record:
In [3]: df
Out[3]:
                                smiles_text  experimental_result
0  COc1cc(NC(=O)c2ccc3nnnn3n2)c(C(=O)O)cc1CCCc1ccc(C(=O)O)c(NC(=O)c2ccc(-n3ccnc3)nn2)c1         6.00 to 7.00
1  O=C(Nc1cc(CCCCc2cc(NC(=O)c3ccc4nnnn4n3)c(C(=O)O)cc2F)c(F)cc1C(=O)O)c1ccc(-n2ccnc2)nn1         7.00 to 8.00

Q: Quick check: pIC50 on human STING protein (Homo sapiens (Human), UniProt Q86WV6), item "O=C(Nc1cc(CCCc2ccc(NC(=O)c3ccc(-n4ccnc4)nn3)c(C(=O)O)c2)ccc1C(=O)O)c1ccc(-n2ccnc2)nn1" ?
A: 7.00 to 8.00

====

# MEASURED ON: human STING protein (Homo sapiens (Human), UniProt Q86WV6)
# PROTOCOL SUMMARY: WT STING binding assay (HTRF, competition with labeled 2′3′cGAMP)
# ASSAY SETUP: recombinant 6×His-tagged human STING, three hours at room temperature
PROPERTY MEASURED: IC50

Sample answers from the record:
>>> print(df.to_string())
                                   compound  property_measured  experimental_result
0  O=C(Nc1cc(CCOc2cc(NC(=O)c3ccc4nnnn4n3)c(C(=O)O)cc2F)c(F)cc1C(=O)O)c1ccc2nnnn2n1               IC50       100 to 1000 nM
1  O=C(Nc1cc(CCCc2cnc(C(=O)O)c(NC(=O)c3ccc(-n4ccnc4)nn3)c2)c(F)cc1C(=O)O)c1ccc2nnnn2n1               IC50       100 to 1000 nM
2  O=C(Nc1cc(CCCc2ccc(C(=O)O)c(NC(=O)c3ccc(-n4ccnc4)nn3)c2)ccc1C(=O)O)c1ccc(-n2ccnc2)nn1               IC50         10 to 100 nM

Hi! Can you tell me IC50 for each of these compounds?
1. O=C(Nc1cc(OCCc2cc(C(=O)O)c(NC(=O)c3ccc4nnnn4n3)cc2F)c(F)cc1C(=O)O)c1ccc2nnnn2n1
2. O=C(Nc1cc(OCCCCOc2cc(NC(=O)c3ccc(-n4ccnc4)nn3)c(C(=O)O)cc2F)c(F)cc1C(=O)O)c1ccc(-n2ccnc2)nn1
3. O=C(Nc1cc(CCCc2ccc(C(=O)O)c(NC(=O)c3ccc4nnnn4n3)c2)c(F)cc1C(=O)O)c1ccc(-n2ccnc2)nn1
4. O=C(Nc1cc(CCCc2cc(NC(=O)c3ccc4nnnn4n3)c(C(=O)O)nc2Cl)ccc1C(=O)O)c1ccc(-n2ccnc2)nn1
5. O=C(Nc1cc(OCCc2cc(NC(=O)c3ccc(-n4ccnc4)nn3)c(C(=O)O)cc2F)c(F)cc1C(=O)O)c1ccc(-c2cn[nH]c2)nn1

A:
100 to 1000 nM
100 to 1000 nM
100 to 1000 nM
10 to 100 nM
100 to 1000 nM

Hi! Can you tell me IC50 for each of these compounds?
1. O=C(Nc1cc(OCCCCOc2cnc(C(=O)O)c(NC(=O)c3ccc4nnnn4n3)c2)c(F)cc1C(=O)O)c1ccc(-n2ccnc2)nn1
2. O=C(Nc1cc(CCCc2cc(C(=O)O)c(NC(=O)c3ccc4nnnn4n3)cc2Cl)ccc1C(=O)O)c1ccc(-n2ccnc2)nn1
3. Cn1nccc1-c1ccc(C(=O)Nc2cc(CCCc3cc(NC(=O)c4ccc(-c5ccnn5C)nn4)c(C(=O)O)cc3F)c(F)cc2C(=O)O)nn1
4. O=C(Nc1cc(CCOc2cc(NC(=O)c3ccc(-n4ccnc4)nn3)c(C(=O)O)cc2F)c(F)cc1CO)c1ccc(-n2ccnc2)nn1
5. O=C(Nc1cc(CCOc2cc(NC(=O)c3ccc4nnnn4n3)c(C(=O)O)cc2Cl)ccc1C(=O)O)c1ccc(-n2ccnc2)nn1

A:
1. 100 to 1000 nM
2. 10 to 100 nM
3. 100 to 1000 nM
4. 100 to 1000 nM
5. 10 to 100 nM

====

# MEASURED ON: human STING protein (Homo sapiens (Human), UniProt Q86WV6)
# PROTOCOL SUMMARY: WT STING binding assay (HTRF, competition with labeled 2′3′cGAMP)
# ASSAY SETUP: recombinant 6×His-tagged human STING, three hours at room temperature
PROPERTY MEASURED: IC50

Sample answers from the record:
>>> df
                                   compound  property_measured  experimental_result
0  O=C(Nc1cc(OCCCCOc2cc(NC(=O)c3ccc4nnnn4n3)c(C(=O)O)cc2F)ccc1C(=O)O)c1ccc2nnnn2n1 [Compound 1]               IC50       100 to 1000 nM
1  O=C(Nc1cc(CCOCc2cc(NC(=O)c3ccc(-n4ccnc4)nn3)c(C(=O)O)cc2F)c(F)cc1C(=O)O)c1ccc(-n2ccnc2)nn1 [Compound 149]               IC50         10 to 100 nM

Attention now shifts to the item below.
Q: State the recorded IC50 for this entry: CC(COc1cc(NC(=O)c2ccc(-n3ccnc3)nn2)c(C(=O)O)cc1F)COc1cc(NC(=O)c2ccc(-n3ccnc3)nn2)c(C(=O)O)cc1F [Compound 185]
A: 10 to 100 nM

====

Give IC50 for every item shown.
# MEASURED ON: human STING protein (Homo sapiens (Human))
# PROTOCOL SUMMARY: WT STING binding assay (HTRF, competition with labeled 2′3′cGAMP)
# ASSAY SETUP: recombinant 6×His-tagged human STING, three hours at room temperature

Hi! Can you tell me IC50 for each of these compounds?
1. COc1cc(C(=O)O)c(NC(=O)c2ccc3nnnn3n2)cc1OCCCCOc1cc(NC(=O)c2ccc(-n3ccnc3)nn2)c(C(=O)O)cc1F
2. O=C(Nc1cc(OCCc2cc(NC(=O)c3ccc4nnnn4n3)c(C(=O)O)cc2Cl)ccc1C(=O)O)c1ccc(-n2ccnc2)nn1
3. O=C(Nc1cc(OCCCCOc2cc(NC(=O)c3ccc4nnnn4n3)c(C(=O)O)cc2F)c(F)cc1C(=O)O)c1ccc(-n2ccnc2)nn1
4. O=C(Nc1cc(OCCc2cc(NC(=O)c3ccc4nnnn4n3)c(C(=O)O)cc2F)c(F)cc1C(=O)O)c1ccc(-n2ccnc2)nn1
5. COc1cc(NC(=O)c2ccc3nnnn3n2)c(C(=O)O)cc1CCCc1cc(NC(=O)c2ccc(-n3ccnc3)nn2)c(C(=O)O)cc1F
6. O=C(Nc1cc(OCCCCOc2cc(NC(=O)c3ccc(-n4ccnc4)nn3)c(C(=O)O)cc2F)c(F)cc1C(=O)O)c1ccc(O)nn1
7. O=C(Nc1cc(CCCc2cc(NC(=O)c3cc4nnnn4nn3)c(C(=O)O)cc2F)c(F)cc1C(=O)O)c1ccc(-c2cn[nH]c2)nn1
8. COc1cc(C(=O)O)c(NC(=O)c2ccc(-n3ccnc3)nn2)cc1CCCc1cc(NC(=O)c2ccc3nnnn3n2)c(C(=O)O)cc1F

A:
1. 10 to 100 nM
2. 100 to 1000 nM
3. 100 to 1000 nM
4. 10 to 100 nM
5. 10 to 100 nM
6. 100 to 1000 nM
7. 10 to 100 nM
8. 10 to 100 nM

Hi! Can you tell me IC50 for each of these compounds?
1. COC(=O)c1cc(F)c(CCCc2cc(NC(=O)c3ccc4nnnn4n3)c(C(=O)O)cc2F)cc1NC(=O)c1ccc(-n2ccnc2)nn1
2. O=C(Nc1cc(OCCCCOc2cnc(C(=O)O)c(NC(=O)c3ccc(-n4ccnc4)nn3)c2)c(F)cc1C(=O)O)c1ccc(-n2ccnc2)nn1
3. O=C(Nc1cc(F)c(CCCc2cc(C(=O)O)c(NC(=O)c3ccc(-n4ccnc4)nn3)cc2F)cc1C(=O)O)c1ccc(-n2ccnc2)nn1
4. O=C(Nc1cc(CCCc2cc(NC(=O)c3ccc4nnnn4n3)c(C(=O)O)cc2Cl)ccc1C(=O)O)c1ccc(-n2ccnc2)nn1
5. O=C(Nc1cc(CSCc2cc(NC(=O)c3ccc4nnnn4n3)c(C(=O)O)cc2F)c(F)cc1C(=O)O)c1ccc(-n2ccnc2)nn1
6. COc1cc(C(=O)O)c(NC(=O)c2ccc(-n3ccnc3)nn2)cc1OCCCCOc1cc(NC(=O)c2ccc(-n3ccnc3)nn2)c(C(=O)O)cc1F
7. O=C(Nc1cc(COCc2cc(NC(=O)c3ccc(-n4ccnc4)nn3)c(C(=O)O)cc2F)c(F)cc1C(=O)O)c1ccc(-n2ccnc2)nn1

A:
10 to 100 nM
100 to 1000 nM
100 to 1000 nM
10 to 100 nM
10 to 100 nM
100 to 1000 nM
10 to 100 nM

Hello, the source for this data is patent US20230357253A1, in case you need it.
